Here the recorded log10(EC50) is given for each entry.
molecular target: human mAChR M1 (Homo sapiens, UniProt P11229); experiment: mAChR M1 cell-based functional assay: calcium mobilization, positive allosteric modulator mode (increase in EC20 acetylcholine response); details: Table 2; human M1; read-out: Human M1 EC50
endpoint.name: log10(EC50) (log10 of the value in nM)

>>> df
                                   molecule  result_number
0  Cc1csc2c(Cc3ccc(-c4ccn(C)n4)cc3)cc(C(=O)NC3CC(F)C3)nc12 (centres unmarked)           3.73
1  Cc1csc2c(Cc3ccc(-c4ccn(C)n4)cc3)cc(C(=O)NC3CC4(COC4)C3)nc12           2.75
2  CC1(C)CC(NC(=O)c2cc(Cc3ccc(-c4nccs4)cc3)c3sccc3n2)CCO1 (centres unmarked)           2.93
3  Cc1ncc(Cc2cc(C(=O)N[C@@H]3CCCCC[C@H]3O)nc3ccsc23)cn1           3.67
4  CN1CCC(NC(=O)c2cc(Cc3ccc(-n4cccn4)cc3)c3sccc3n2)CC1           3.17
5  Cc1csc2c(Cc3ccc(-n4cccn4)cc3)cc(C(=O)N[C@@H]3CCCC[C@H]3O)nc12           2.51
6  O=C(NC1CC(F)C1)c1cc(Cc2ccc(-c3cscn3)cc2)c2sccc2n1 (centres unmarked)           3.24

* * *

Target: human mAChR M1 (Homo sapiens, UniProt P11229)
Sequence (P11229 1-460): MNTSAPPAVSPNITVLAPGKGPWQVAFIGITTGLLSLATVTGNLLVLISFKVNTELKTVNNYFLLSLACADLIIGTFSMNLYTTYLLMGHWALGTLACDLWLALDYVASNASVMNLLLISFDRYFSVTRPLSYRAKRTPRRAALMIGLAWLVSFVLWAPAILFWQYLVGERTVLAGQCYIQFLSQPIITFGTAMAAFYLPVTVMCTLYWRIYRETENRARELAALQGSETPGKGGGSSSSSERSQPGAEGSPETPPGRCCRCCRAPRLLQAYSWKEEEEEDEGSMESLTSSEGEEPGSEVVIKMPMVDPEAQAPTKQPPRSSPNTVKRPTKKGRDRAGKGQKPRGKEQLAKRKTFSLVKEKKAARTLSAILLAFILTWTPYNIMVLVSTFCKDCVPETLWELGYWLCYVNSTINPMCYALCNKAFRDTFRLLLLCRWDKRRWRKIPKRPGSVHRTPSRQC
Assay: mAChR M1 cell-based functional assay: calcium mobilization, positive allosteric modulator mode (increase in EC20 acetylcholine response)
Settings: Table 2; human M1; read-out: Human M1 EC50
endpoint.name: EC50 (nM)

>>> print(df.to_string())
                                    compound  unit_symbol  cmp  result_number
 0  CN(C(=O)c1cc(Cc2ccc(-c3cscn3)cc2)c2sccc2n1)C1CCOCC1 [Compound 214]           nM    =           5950
 1  O=C(N[C@@H]1CCC[C@H]1O)c1cc(Cc2ccc(-n3cccn3)cc2)c2sccc2n1 [Compound 71]           nM    =           80.3
 2  O=C(NC1CC2(COC2)C1)c1cc(Cc2ccc(-c3cncs3)cc2)c2sccc2n1 [Compound 398]           nM    =            438
 3  Cc1ccc(C(F)c2cc(C(=O)N[C@@H]3CCCC[C@H]3O)nc3ccsc23)cn1 (some centres unmarked) [Compound 85]           nM    =           80.1
 4  Cn1cc(-c2ccc(Cc3cc(C(=O)N[C@@H]4CCOC[C@H]4O)nc4ccsc34)cc2)nn1 [Compound 153]           nM    =           4.74
 5  O=C(NC1CCOCC1)c1cc(Cc2ccc(-c3nccs3)cc2)c2sccc2n1 [Compound 296]           nM    =            273
 6  O=C(NC1CCOCC1)c1cc(Cc2ccc(C(F)(F)F)nc2)c2sccc2n1 [Compound 89]           nM    =           1730
 7  Cn1ccc(-c2ccc(Cc3cc(C(=O)NC4CC5(COC5)C4)nc4ccsc34)cc2)n1 [Compound 252]           nM    =            258
 8  O=C(NCC1CCOC1)c1cc(Cc2ccc(-n3cccn3)cc2)c2sccc2n1 (centres unmarked) [Compound 285]           nM    =           95.3
 9  Cc1nc(-c2ccc(Cc3cc(C(=O)N(C)C4CCOCC4)nc4ccsc34)cc2)cs1 [Compound 190]           nM    =           6140
10  Cc1cc2nc(C(=O)NC3CCOCC3)cc(Cc3ccc(-n4cccn4)cc3)c2s1 [Compound 239]           nM    =           3080
11  Cn1cc(-c2ccc(Cc3cc(C(=O)N[C@H]4CCCC[C@@H]4O)nc4ccn(C)c34)cn2)cn1 [Compound 469]           nM    =           29.8
12  CC1CC(NC(=O)c2cc(Cc3ccc(-c4ccn(C)n4)cc3)c3sccc3n2)CC(C)O1 (centres unmarked) [Compound 326]           nM    =           2840
13  O=C(N[C@H]1CC[C@@H]1O)c1cc(Cc2ccc(-c3cncs3)cc2)c2sccc2n1 [Compound 405]           nM    =            428
14  Cn1ccc(-c2ccc(Cc3cc(C(=O)NC[C@H]4CCCN4)nc4ccsc34)cn2)n1 [Compound 427]           nM    =            316
15  Cn1ncc2nc(C(=O)N[C@@H]3CC[C@H]3O)cc(Cc3ccc(-n4cccn4)cc3)c21 [Compound 496]           nM    >          10000
16  Cn1ccc(-c2ccc(Cc3cc(C(=O)NC4CCOC(C)(C)C4)nc4ccsc34)cc2)n1 (centres unmarked) [Compound 325]           nM    =            907
17  Cc1nc(-c2ccc(Cc3cc(C(=O)N[C@@H]4CCCOC4)nc4ccsc34)cc2)cs1 [Compound 188]           nM    =           1790
18  Cn1cc(-c2ccc(Cc3cc(C(=O)NC4CCOCC4(C)C)nc4ccsc34)cn2)cn1 (centres unmarked) [Compound 362]           nM    =           84.9
19  Cc1nc(-c2ccc(Cc3cc(C(=O)N[C@H]4CCCOC4)nc4ccsc34)cc2)cs1 [Compound 189]           nM    =           6270
20  O=C(N[C@@H]1CCOC[C@H]1O)c1cc(Cc2ccc(C(F)(F)F)nc2)c2sccc2n1 [Compound 91]           nM    =           73.8
21  Cc1ccc(Cc2cc(C(=O)NC3CC(F)C3)nc3ccsc23)cn1 (centres unmarked) [Compound 259]           nM    >          10000
22  Cc1ccc([C@H](F)c2cc(C(=O)N[C@H]3CCCC[C@@H]3O)nc3ccsc23)cn1 [Compound 233]           nM    =            161
23  O=C(NC1CCOCC1)c1cc(Cc2ccc(-c3cncs3)cc2)c2sccc2n1 [Compound 394]           nM    =            233
24  Cc1csc2c(Cc3ccc(-c4ccn(C)n4)cc3)cc(C(=O)NC3CC(F)(F)C3)nc12 [Compound 309]           nM    =           4930
25  O=C(c1cc(Cc2ccc(-n3cccn3)cc2)c2sccc2n1)N1CCN(CCO)CC1 [Compound 84]           nM    >          10000
26  Cn1cc(-c2ccc(Cc3cc(C(=O)NCC4CCO4)nc4ccsc34)cn2)cn1 (centres unmarked) [Compound 338]           nM    =           84.9
27  O=C(NC1CCOCC1)c1cc(Cc2ccc(-c3cscn3)cc2)c2sccc2n1 [Compound 232]           nM    =            134
28  Cc1nc(-c2ccc(Cc3cc(C(=O)N[C@H]4CCOC4)nc4ccsc34)cc2)cs1 [Compound 184]           nM    =           3610
29  Cc1nc(-c2ccc(Cc3cc(C(=O)N[C@H]4CCCCC[C@@H]4O)nc4ccsc34)cc2)cs1 [Compound 196]           nM    =            234
30  Cn1ccc2nc(C(=O)N[C@H]3CCCC[C@@H]3O)cc(Cc3ccc(-c4nccs4)cc3)c21 [Compound 479]           nM    =             41
31  Cn1cc(-c2ccc(Cc3cc(C(=O)NC4CC(F)C4)nc4ccsc34)cn2)cn1 (centres unmarked) [Compound 346]           nM    =            266
